Consider the following binders and their measured % inhibition 10 µg/ml, AVERAGE (HUVEC proliferation on coated DLL4) readings.
tested.target: DLL4 extracellular domain (R&D systems, catalog #1506-D4/CF) (UniProt Q9NR61 27-529, limits assumed)
Sequence (Q9NR61 27-529 limits assumed): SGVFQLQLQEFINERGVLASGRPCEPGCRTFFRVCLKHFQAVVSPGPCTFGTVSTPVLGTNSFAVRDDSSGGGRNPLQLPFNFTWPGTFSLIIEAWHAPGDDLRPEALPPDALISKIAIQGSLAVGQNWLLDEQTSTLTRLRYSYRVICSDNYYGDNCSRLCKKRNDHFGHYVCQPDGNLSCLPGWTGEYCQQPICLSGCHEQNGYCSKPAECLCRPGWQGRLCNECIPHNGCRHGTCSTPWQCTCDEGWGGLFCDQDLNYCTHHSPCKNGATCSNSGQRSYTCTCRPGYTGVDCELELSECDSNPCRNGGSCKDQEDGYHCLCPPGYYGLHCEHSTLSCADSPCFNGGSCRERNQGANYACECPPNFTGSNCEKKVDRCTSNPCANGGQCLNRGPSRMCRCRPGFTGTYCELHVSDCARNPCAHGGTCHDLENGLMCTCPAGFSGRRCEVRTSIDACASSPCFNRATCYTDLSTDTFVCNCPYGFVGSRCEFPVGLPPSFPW
assay.notes: cell-based or functional assay
reported.property: % inhibition 10 µg/ml, AVERAGE (HUVEC proliferation on coated DLL4)

{"binder": "17F3 (antibody, IgG2, V domains shown, Fully human; also used where no isotype is printed) VH: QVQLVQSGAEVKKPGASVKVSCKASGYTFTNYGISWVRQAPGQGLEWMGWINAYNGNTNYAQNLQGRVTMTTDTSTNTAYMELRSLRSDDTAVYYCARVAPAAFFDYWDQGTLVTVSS VL: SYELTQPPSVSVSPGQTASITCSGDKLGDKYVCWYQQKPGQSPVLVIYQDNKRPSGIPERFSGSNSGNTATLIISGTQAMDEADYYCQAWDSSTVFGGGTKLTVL", "result": "52%"}
{"binder": "1D4 (antibody, IgG4, V domains shown, Fully human XenoMouse antibody; also used where no isotype is printed) VH: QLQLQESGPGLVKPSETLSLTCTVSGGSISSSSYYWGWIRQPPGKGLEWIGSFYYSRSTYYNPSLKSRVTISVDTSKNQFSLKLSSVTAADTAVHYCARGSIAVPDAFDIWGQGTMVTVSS VL: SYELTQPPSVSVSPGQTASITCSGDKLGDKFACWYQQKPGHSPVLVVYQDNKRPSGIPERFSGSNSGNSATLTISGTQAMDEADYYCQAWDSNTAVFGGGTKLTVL", "result": "72%"}
{"binder": "2H10 (antibody, IgG4, V domains shown, Fully human; used for IgG4 rows and where no isotype is printed; also called 2H10 IgG4) VH: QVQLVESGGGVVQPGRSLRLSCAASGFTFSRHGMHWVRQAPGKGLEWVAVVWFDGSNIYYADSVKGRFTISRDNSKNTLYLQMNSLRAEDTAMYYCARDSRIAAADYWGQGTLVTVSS VL: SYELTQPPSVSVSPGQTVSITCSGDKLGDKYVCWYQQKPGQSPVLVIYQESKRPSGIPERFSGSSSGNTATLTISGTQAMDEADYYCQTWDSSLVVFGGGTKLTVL", "result": "103%"}
